biological target: UniProt O14578; assay: Inhibition of CRIK (unknown origin) at 1 uM by radiometric assay relative to control
Sequence (O14578 whole entry): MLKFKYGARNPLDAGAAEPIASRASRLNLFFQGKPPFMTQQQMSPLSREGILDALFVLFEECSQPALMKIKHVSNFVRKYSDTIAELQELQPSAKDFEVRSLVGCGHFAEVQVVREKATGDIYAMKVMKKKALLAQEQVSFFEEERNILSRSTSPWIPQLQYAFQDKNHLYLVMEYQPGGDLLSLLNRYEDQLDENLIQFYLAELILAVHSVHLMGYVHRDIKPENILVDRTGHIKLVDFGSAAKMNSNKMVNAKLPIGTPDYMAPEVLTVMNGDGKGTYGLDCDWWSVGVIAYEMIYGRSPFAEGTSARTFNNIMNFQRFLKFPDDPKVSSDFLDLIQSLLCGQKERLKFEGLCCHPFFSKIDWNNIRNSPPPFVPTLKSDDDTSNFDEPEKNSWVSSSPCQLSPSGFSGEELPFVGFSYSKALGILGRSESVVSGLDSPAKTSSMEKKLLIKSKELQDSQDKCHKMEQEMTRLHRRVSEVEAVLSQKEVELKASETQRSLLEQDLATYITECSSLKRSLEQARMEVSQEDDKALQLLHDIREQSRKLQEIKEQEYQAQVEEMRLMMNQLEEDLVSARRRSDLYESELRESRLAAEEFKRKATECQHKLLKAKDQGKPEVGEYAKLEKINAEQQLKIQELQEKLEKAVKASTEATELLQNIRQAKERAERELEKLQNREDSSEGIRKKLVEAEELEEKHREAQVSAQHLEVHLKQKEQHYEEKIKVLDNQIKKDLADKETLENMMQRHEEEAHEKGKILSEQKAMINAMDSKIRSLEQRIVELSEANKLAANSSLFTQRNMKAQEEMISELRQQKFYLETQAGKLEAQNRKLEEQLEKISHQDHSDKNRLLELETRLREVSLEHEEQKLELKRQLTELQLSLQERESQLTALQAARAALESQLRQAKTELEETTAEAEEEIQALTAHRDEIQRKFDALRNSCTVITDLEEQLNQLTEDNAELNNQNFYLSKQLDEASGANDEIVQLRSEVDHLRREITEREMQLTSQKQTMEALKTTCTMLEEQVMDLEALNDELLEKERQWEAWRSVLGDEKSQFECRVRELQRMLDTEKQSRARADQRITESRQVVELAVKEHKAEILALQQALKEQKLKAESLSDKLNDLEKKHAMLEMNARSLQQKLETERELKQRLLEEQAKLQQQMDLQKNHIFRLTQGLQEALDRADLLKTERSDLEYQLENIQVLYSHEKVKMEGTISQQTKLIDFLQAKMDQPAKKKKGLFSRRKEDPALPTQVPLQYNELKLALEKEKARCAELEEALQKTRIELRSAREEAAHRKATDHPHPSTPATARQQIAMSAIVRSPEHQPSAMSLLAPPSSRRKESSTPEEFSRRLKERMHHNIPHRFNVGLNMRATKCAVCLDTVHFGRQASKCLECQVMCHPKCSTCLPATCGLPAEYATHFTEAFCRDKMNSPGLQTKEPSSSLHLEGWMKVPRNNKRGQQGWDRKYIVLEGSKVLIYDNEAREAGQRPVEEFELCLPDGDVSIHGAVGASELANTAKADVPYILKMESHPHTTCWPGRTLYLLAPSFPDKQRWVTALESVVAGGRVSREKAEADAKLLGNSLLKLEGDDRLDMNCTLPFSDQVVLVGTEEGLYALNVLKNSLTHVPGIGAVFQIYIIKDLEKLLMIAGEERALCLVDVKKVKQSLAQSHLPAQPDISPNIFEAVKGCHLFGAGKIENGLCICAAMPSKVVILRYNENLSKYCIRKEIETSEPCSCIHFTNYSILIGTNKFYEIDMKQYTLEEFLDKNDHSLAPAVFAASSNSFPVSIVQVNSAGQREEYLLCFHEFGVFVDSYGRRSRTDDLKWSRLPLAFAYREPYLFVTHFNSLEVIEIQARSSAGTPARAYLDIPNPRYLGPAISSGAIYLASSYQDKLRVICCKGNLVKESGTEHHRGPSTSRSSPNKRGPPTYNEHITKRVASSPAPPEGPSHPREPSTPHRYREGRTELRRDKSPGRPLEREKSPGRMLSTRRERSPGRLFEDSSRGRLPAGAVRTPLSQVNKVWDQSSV
Assign class by inhibition: not lower than 20% means Yes; lower than 20% means No.

Cn1cc(-c2cc(N)nc3[nH]ccc23)c(-c2ccc(F)cn2)n1 : No

Then there is this compound:
IN: Exam item: decide whether the reported inhibition for Cn1cc(-c2ccnc3[nH]ccc23)c(-c2ccc(F)cn2)n1 is at least 20%.
OUT: Yes

---

Reported Papp A→B at 1 h, 5 µM values for a set of compounds
test: Apparent permeability across apical to basal side in MDCK cells expressing MDR1 at 5 uM incubated for 60 mins by LC/MS/MS analysis; type: ADME, cell-based, Canis lupus familiaris, MDCK1; conditions: dog
Write the number in ×10⁻⁶ cm/s without appending the unit.

Use these answered entries as a reference point.
Cn1cc(-c2ccnc3[nH]ncc23)c(-c2ccc(F)cc2)n1 : 27.3
Cn1cc(-c2ccnc3[nH]ccc23)c(-c2ccc(F)cn2)n1 : 19.6
Cn1cc(-c2ccnc3[nH]ccc23)c(-c2ccc(F)cc2)n1 : 25.9
CC1(C)Cn2nc(-c3ccc(F)cn3)c(-c3ccnc4[nH]ncc34)c2CO1 : 7.4

IN: Report measured Papp A→B at 1 h, 5 µM; entry is [2H]C([2H])([2H])C1(C([2H])([2H])[2H])Cn2nc(-c3ccc(F)cn3)c(-c3ccnc4[nH]ncc34)c2CO1
OUT: 4.8
